Tested on: neuromuscular block, induced by the muscle relaxant rocuronium bromide (Roc)
Assay: Reversal of neuromuscular blockade in anaesthetized guinea pigs in vivo
Settings: anaesthetized guinea pigs; rocuronium bromide steady-state block; maximum reversal
Observable: % max reversal (%)
Your answer is read as %, so omit the unit and give the number.

Request: Field: % max reversal (neuromuscular block, induced by the muscle relaxant rocuronium bromide (Roc)). Entry: OCCSC[C@H]1O[C@@H]2O[C@H]3[C@H](O)[C@@H](O)[C@@H](O[C@H]4[C@H](O)[C@@H](O)[C@@H](O[C@H]5[C@H](O)[C@@H](O)[C@@H](O[C@H]6[C@H](O)[C@@H](O)[C@@H](O[C@H]7[C@H](O)[C@@H](O)[C@@H](O[C@H]8[C@H](O)[C@@H](O)[C@@H](O[C@H]9[C@H](O)[C@@H](O)[C@@H](O[C@H]1[C@H](O)[C@H]2O)O[C@@H]9CSCCO)O[C@@H]8CSCCO)O[C@@H]7CSCCO)O[C@@H]6CSCCO)O[C@@H]5CSCCO)O[C@@H]4CSCCO)O[C@@H]3CSCCO
Response: 96

----------
Test system: neuromuscular block, induced by the muscle relaxant rocuronium bromide (Roc)
Assay: Reversal of neuromuscular blockade in anaesthetized guinea pigs in vivo
Settings: anaesthetized guinea pigs; rocuronium bromide steady-state block; maximum reversal
Observable: % max reversal (%)
Your answer is read as %, so omit the unit and give the number.

Request: GET /values?readout=% max reversal&item= O=C([O-])c1cccc(SCC2OC3OC4C(CSc5cccc(C(=O)[O-])c5)OC(OC5C(CSc6cccc(C(=O)[O-])c6)OC(OC6C(CSc7cccc(C(=O)[O-])c7)OC(OC7C(CSc8cccc(C(=O)[O-])c8)OC(OC8C(CSc9cccc(C(=O)[O-])c9)OC(OC9C(CSc%10cccc(C(=O)[O-])c%10)OC(OC%10C(CSc%11cccc(C(=O)[O-])c%11)OC(OC2C(O)C3O)C(O)C%10O)C(O)C9O)C(O)C8O)C(O)C7O)C(O)C6O)C(O)C5O)C(O)C4O)c1.[Na+].[Na+].[Na+].[Na+].[Na+].[Na+].[Na+].[Na+] (stereo not shown)
Response: 102

----------
System: neuromuscular block, induced by the muscle relaxant rocuronium bromide (Roc)
Test: Reversal of neuromuscular blockade in anaesthetized guinea pigs in vivo
Details: anaesthetized guinea pigs; rocuronium bromide steady-state block; maximum reversal
Observable: % max reversal (%)
Your answer is read as %, so omit the unit and give the number.

Request: GET /values?readout=% max reversal&item= NC(=O)CCCSCC1OC2OC3C(CSCCCC(N)=O)OC(OC4C(CSCCCC(N)=O)OC(OC5C(CSCCCC(N)=O)OC(OC6C(CSCCCC(N)=O)OC(OC7C(CSCCCC(N)=O)OC(OC8C(CSCCCC(N)=O)OC(OC9C(CSCCCC(N)=O)OC(OC1C(O)C2O)C(O)C9O)C(O)C8O)C(O)C7O)C(O)C6O)C(O)C5O)C(O)C4O)C(O)C3O (stereo not shown) [example 10]
Response: 94

----------
Measured % max reversal of individual entries
Tested on: neuromuscular block, induced by the muscle relaxant rocuronium bromide (Roc)
Assay: Reversal of neuromuscular blockade in anaesthetized guinea pigs in vivo
Settings: anaesthetized guinea pigs; rocuronium bromide steady-state block; maximum reversal
Procedure: Reversal of Neuromuscular Blockade in Anaesthetized Guinea Pigs in vivo Male Dunkin-Hartley guinea pigs (bodyweight: 600-900 g) were anaesthetized by i.p. administration of 10 mg/kg pentobarbitone and 1000 mg/kg urethane. […] The sciatic nerve was stimulated (rectangular pulses of 0.5 ms duration at 10 s (0.1 Hz) intervals at a supramaximal voltage, using a Grass S88 Stimulator) and the force of M. gastrocnemius contractions was measured using a Grass FT03 force-displacement transducer. […]
Your answer is read as %, so omit the unit and give the number.

Answered cases to consult:
[
  {
    "Molecule": "OC[C@H]1O[C@@H]2O[C@H]3[C@H](O)[C@@H](O)[C@@H](O[C@H]4[C@H](O)[C@@H](O)[C@@H](O[C@H]5[C@H](O)[C@@H](O)[C@@H](O[C@H]6[C@H](O)[C@@H](O)[C@@H](O[C@H]7[C@H](O)[C@@H](O)[C@@H](O[C@H]8[C@H](O)[C@@H](O)[C@@H](O[C@H]1[C@H](O)[C@H]2O)O[C@@H]8CO)O[C@@H]7CO)O[C@@H]6CO)O[C@@H]5CO)O[C@@H]4CO)O[C@@H]3CO [β-cyclodextrin, reference compound]",
    "Observable": "% max reversal",
    "Unit Spec": "%",
    "Numeric Readout": 93
  },
  {
    "Molecule": "O=C([O-])CCCSCC1OC2OC3C(CSCCCC(=O)[O-])OC(OC4C(CSCCCC(=O)[O-])OC(OC5C(CSCCCC(=O)[O-])OC(OC6C(CSCCCC(=O)[O-])OC(OC7C(CSCCCC(=O)[O-])OC(OC8C(CSCCCC(=O)[O-])OC(OC1C(O)C2O)C(O)C8O)C(O)C7O)C(O)C6O)C(O)C5O)C(O)C4O)C(O)C3O.[Na+].[Na+].[Na+].[Na+].[Na+].[Na+].[Na+] (stereo not shown)",
    "Observable": "% max reversal",
    "Unit Spec": "%",
    "Numeric Readout": 100
  },
  {
    "Molecule": "OCC(CO)(CO)CSCC1OC2OC3C(CSCC(CO)(CO)CO)OC(OC4C(CSCC(CO)(CO)CO)OC(OC5C(CSCC(CO)(CO)CO)OC(OC6C(CSCC(CO)(CO)CO)OC(OC7C(CSCC(CO)(CO)CO)OC(OC8C(CSCC(CO)(CO)CO)OC(OC9C(CSCC(CO)(CO)CO)OC(OC1C(O)C2O)C(O)C9O)C(O)C8O)C(O)C7O)C(O)C6O)C(O)C5O)C(O)C4O)C(O)C3O (stereo not shown)",
    "Observable": "% max reversal",
    "Unit Spec": "%",
    "Numeric Readout": 63
  }
]

Proceeding to the next molecule to report its % max reversal.
Request: GET /values?readout=% max reversal&item= OC[C@H]1O[C@@H]2O[C@H]3[C@H](O)[C@@H](O)[C@@H](O[C@H]4[C@H](O)[C@@H](O)[C@@H](O[C@H]5[C@H](O)[C@@H](O)[C@@H](O[C@H]6[C@H](O)[C@@H](O)[C@@H](O[C@H]7[C@H](O)[C@@H](O)[C@@H](O[C@H]8[C@H](O)[C@@H](O)[C@@H](O[C@H]9[C@H](O)[C@@H](O)[C@@H](O[C@H]1[C@H](O)[C@H]2O)O[C@@H]9CO)O[C@@H]8CO)O[C@@H]7CO)O[C@@H]6CO)O[C@@H]5CO)O[C@@H]4CO)O[C@@H]3CO [γ-cyclodextrin, reference compound]
Response: 104
